test: Hydrolysis rate / drug release rate of the compounds (release of JAK inhibitor, HPLC); assay type: physicochemical; details: % release of JAK inhibitor from sample in acetonitrile/water=7/3 (v/v), 37° C. constant temperature shaker, sampled days 1-4, HPLC
VALUE_TYPE: Release Rate (%/day)

The examples below pair each entry with its known result.
# COMPOUND, Release Rate (%/day)
rows = [
    ("C[C@@H]1CCN(C(=O)CC#N)C[C@@H]1N(C)c1ncnc2c1ccn2COC(=O)Cc1ccccc1Nc1c(Cl)cccc1Cl [Ex. 51]", 0.35),
    ("CNS(=O)(=O)CC1CCC(N(C)c2ncnc3c2ccn3C(=O)c2ccccc2Nc2cccc(Cl)c2C)CC1 (centres unmarked) [Ex. 41]", 4.27),
    ("CC[C@@H]1CN(C(=O)NCC(F)(F)F)C[C@@H]1c1cnc2cnc3c(ccn3C(=O)Cc3c(C)n(C(=O)c4ccc(Cl)cc4)c4ccc(OC)cc34)n12 [Ex. 133]", 10.13),
    ("COc1ccc2c(c1)c(CC(=O)n1ccc3c(-c4cnn([C@H](CC#N)C5CCCC5)c4)ncnc31)c(C)n2C(=O)c1ccc(Cl)cc1 [Ex. 79]", 7.38),
    ("CCS(=O)(=O)N1CC(CC#N)(n2cc(-c3ncnc4c3ccn4C(=O)[C@@H](C)c3ccc(CC(C)C)cc3)cn2)C1 [Ex. 17]", 2.44),
    ("CNS(=O)(=O)C[C@H]1CC[C@H](N(C)c2ncnc3c2ccn3COC(=O)C(C)c2cccc(C(=O)c3ccccc3)c2)CC1 (some centres unmarked) [Ex. 90]", 0.35),
    ("CC(=O)Nc1ccc(CC(=O)OCn2ccc3c(N(C)[C@H]4CN(C(=O)CC#N)CC[C@H]4C)ncnc32)cc1 [Ex. 59]", 0.15),
    ("CCC(C(=O)n1ccc2c(N(C)C3CCC(CS(=O)(=O)NC)CC3)ncnc21)c1ccc(N2Cc3ccccc3C2=O)cc1 (centres unmarked) [Ex. 35]", 4.57),
]

a: CC(C)Cc1ccc(C(C)C(=O)n2ccc3c(N(C)[C@H]4CN(C(=O)CC#N)CC[C@H]4C)ncnc32)cc1 (some centres unmarked) [Ex. 1]
b: CC(=O)Nc1ccc(CC(=O)OCn2ccc3c(-c4cnn([C@H](CC#N)C5CCCC5)c4)ncnc32)cc1 [Ex. 110]
c: Cc1cccc(Nc2ccccc2C(=O)n2ccc3c(N(C)[C@H]4CN(C(=O)CC#N)CC[C@H]4C)ncnc32)c1C [Ex. 4]
d: CNS(=O)(=O)CC1CCC(N(C)c2ncnc3c2ccn3COC(=O)C(C)c2ccc(-c3ccccc3)c(F)c2)CC1 (centres unmarked) [Ex. 113]
e: CNS(=O)(=O)C[C@H]1CC[C@H](N(C)c2ncnc3c2ccn3COC(=O)Cc2ccc(NC(C)=O)cc2)CC1 [Ex. 93]
stdin: Rank items: key Release Rate (%/day), increasing. Give the labels in the order specified.
stdout: b, d, e, c, a

----------
test: Hydrolysis rate / drug release rate of the compounds (release of JAK inhibitor, HPLC); format: physicochemical; settings: % release of JAK inhibitor from sample in acetonitrile/water=7/3 (v/v), 37° C. constant temperature shaker, sampled days 1-4, HPLC
VALUE_TYPE: Release Rate (%/day)

Below are worked cases with known answers.
# COMPOUND, Release Rate (%/day)
data = [
    ("CCC(C(=O)n1ccc2c(-c3cnn([C@H](CC#N)C4CCCC4)c3)ncnc21)c1ccc(N2Cc3ccccc3C2=O)cc1 (stereo partly shown)", 1.57),
    ("CC[C@@H]1CN(C(=O)NCC(F)(F)F)C[C@@H]1c1cnc2cnc3c(ccn3C(=O)C(C)c3cccc(C(=O)c4ccccc4)c3)n12 (stereo partly shown)", 7.80),
]

1: CC(C(=O)OCn1ccc2c(N(C)[C@H]3CN(C(=O)CC#N)CC[C@H]3C)ncnc21)c1ccc(-c2ccccc2)c(F)c1 (stereo partly shown)
2: CNS(=O)(=O)C[C@H]1CC[C@H](N(C)c2ncnc3c2ccn3COC(=O)[C@@H](NC(=O)OC(C)(C)C)c2ccccc2)CC1
3: CNS(=O)(=O)C[C@H]1CC[C@H](N(C)c2ncnc3c2ccn3C(=O)C(C)c2ccc(CC3CCCC3=O)cc2)CC1 (stereo partly shown)
4: CCc1cccc2c3c([nH]c12)C(CC)(CC(=O)n1ccc2c(N(C)[C@H]4CN(C(=O)CC#N)CC[C@H]4C)ncnc21)OCC3 (stereo partly shown)
5: CCS(=O)(=O)N1CC(CC#N)(n2cc(-c3ncnc4c3ccn4COC(=O)[C@@H](NC(=O)OC(C)(C)C)c3ccccc3)cn2)C1
stdin: In this exercise, place the 5 compounds in ascending sequence of their recorded Release Rate (%/day). Write the labels, ordered according to the request.
stdout: 1, 5, 4, 2, 3

----------
assay: Hydrolysis rate / drug release rate of the compounds (release of JAK inhibitor, HPLC); type: physicochemical; conditions: % release of JAK inhibitor from sample in acetonitrile/water=7/3 (v/v), 37° C. constant temperature shaker, sampled days 1-4, HPLC
VALUE_TYPE: Release Rate (%/day)

I: CCc1cccc2c3c([nH]c12)C(CC)(CC(=O)n1ccc2c(-c4cnn(C5(CC#N)CN(S(=O)(=O)CC)C5)c4)ncnc21)OCC3 (stereo not drawn)
II: CCC(C(=O)n1ccc2c1ncc1ncc([C@H]3CN(C(=O)NCC(F)(F)F)C[C@H]3CC)n12)c1ccc(N2Cc3ccccc3C2=O)cc1 (stereo partly drawn)
III: CCS(=O)(=O)N1CC(CC#N)(n2cc(-c3ncnc4c3ccn4COC3=C(C(=O)Nc4ncc(C)s4)N(C)S(=O)(=O)c4ccccc43)cn2)C1
stdin: Re-order the entries listed above so their Release Rate (%/day) values fall from first to last. Output spec: a listing of the labels in the requested order.
stdout: III, II, I
(III: 15.32 %/day, II: 2.15 %/day, I: 0.68 %/day)

----------
experiment: Hydrolysis rate / drug release rate of the compounds (release of JAK inhibitor, HPLC); type: physicochemical; settings: % release of JAK inhibitor from sample in acetonitrile/water=7/3 (v/v), 37° C. constant temperature shaker, sampled days 1-4, HPLC
VALUE_TYPE: Release Rate (%/day)

# COMPOUND, VALUE_TYPE, QUANTITATIVE_READOUT
records = [
    ("CCC(C(=O)n1ccc2c(-c3cnn(C4(CC#N)CN(S(=O)(=O)CC)C4)c3)ncnc21)c1ccc(N2Cc3ccccc3C2=O)cc1 (stereo not drawn)", "Release Rate (%/day)", 1.63),
]

a: CNS(=O)(=O)C[C@H]1CC[C@H](N(C)c2ncnc3c2ccn3C(=O)Cc2c(C)n(C(=O)c3ccc(Cl)cc3)c3ccc(OC)cc23)CC1
b: CCS(=O)(=O)N1CC(CC#N)(n2cc(-c3ncnc4c3ccn4C(=O)[C@@H](NC(=O)OC(C)(C)C)c3ccccc3)cn2)C1
stdin: Hi team, can someone confirm which has the larger Release Rate (%/day): a or b ? Thanks. Bench note: the answer is the label of the chosen record.
stdout: b

----------
test: Hydrolysis rate / drug release rate of the compounds (release of JAK inhibitor, HPLC); assay type: physicochemical; details: % release of JAK inhibitor from sample in acetonitrile/water=7/3 (v/v), 37° C. constant temperature shaker, sampled days 1-4, HPLC
VALUE_TYPE: Release Rate (%/day)

Below, each entry is followed by its recorded Release Rate (%/day) result.
# COMPOUND, QUANTITATIVE_READOUT
data = [
    ("CC(C(=O)n1ccc2c(N(C)[C@H]3CN(C(=O)CC#N)CC[C@H]3C)ncnc21)c1cccc(Oc2ccccc2)c1 (stereo partly shown) [Ex. 10]", 11.25),
    ("CC(C)Cc1ccc([C@H](C)C(=O)OCn2ccc3c(N(C)[C@H]4CN(C(=O)CC#N)CC[C@H]4C)ncnc32)cc1 [Ex. 3]", 0.05),
]

1: CCS(=O)(=O)N1CC(CC#N)(n2cc(-c3ncnc4c3ccn4C(=O)[C@@H](C)c3ccc4cc(OC)ccc4c3)cn2)C1 [Ex. 18]
2: CCC(C(=O)n1ccc2c(N(C)[C@H]3CN(C(=O)CC#N)CC[C@H]3C)ncnc21)c1ccc(N2Cc3ccccc3C2=O)cc1 (stereo partly shown) [Ex. 29]
3: CCC(C(=O)n1ccc2c(N3CC[C@]4(C3)[C@@H](C)CN4C(=O)CC#N)ncnc21)c1ccc(N2Cc3ccccc3C2=O)cc1 (stereo partly shown) [Ex. 143]
4: CC(C(=O)OCn1ccc2c(N(C)[C@H]3CN(C(=O)CC#N)CC[C@H]3C)ncnc21)c1cccc(C(=O)c2ccccc2)c1 (stereo partly shown) [Ex. 49]
5: CC(C)Cc1ccc([C@H](C)C(=O)OCn2ccc3c(N4CC[C@]5(C4)[C@@H](C)CN5C(=O)CC#N)ncnc32)cc1 [Ex. 144]
stdin: List these items ordered by Release Rate (%/day), big to small. As an answer, provide the labels arranged in the order called for.
stdout: 2, 3, 1, 4, 5

----------
experiment: Hydrolysis rate / drug release rate of the compounds (release of JAK inhibitor, HPLC); format: physicochemical; settings: % release of JAK inhibitor from sample in acetonitrile/water=7/3 (v/v), 37° C. constant temperature shaker, sampled days 1-4, HPLC
VALUE_TYPE: Release Rate (%/day)

See these solved cases before continuing.
# COMPOUND, SCALE_UNIT, Release Rate (%/day)
data = [
    ("CNS(=O)(=O)CC1CCC(N(C)c2ncnc3c2ccn3C(=O)C(C)c2ccc(-c3ccccc3)c(F)c2)CC1 (stereo not shown) [Ex. 36]", "%/day", 14.98),
    ("CCc1cccc2c3c([nH]c12)C(CC)(CC(=O)OCn1ccc2c(N(C)[C@H]4CN(C(=O)CC#N)CC[C@H]4C)ncnc21)OCC3 (stereo partly shown) [Ex. 63]", "%/day", 0.02),
]

A: Cc1c(Cl)cccc1Nc1ccccc1C(=O)OCn1ccc2c(N(C)[C@H]3CN(C(=O)CC#N)CC[C@H]3C)ncnc21 [Ex. 66]
B: CCC(C(=O)OCn1ccc2c(N(C)[C@H]3CN(C(=O)CC#N)CC[C@H]3C)ncnc21)c1ccc(N2Cc3ccccc3C2=O)cc1 (stereo partly shown) [Ex. 65]
stdin: In the pair A and B , the larger recorded Release Rate (%/day) belongs to which? Output the label that corresponds to your choice.
stdout: A
